- assay_system: T1, endogenous Nup50 (human, UniProt Q9UKX7 1-468, limits assumed)
- T1 construct: Detected with anti-Nup50
- T1 sequence (looked up): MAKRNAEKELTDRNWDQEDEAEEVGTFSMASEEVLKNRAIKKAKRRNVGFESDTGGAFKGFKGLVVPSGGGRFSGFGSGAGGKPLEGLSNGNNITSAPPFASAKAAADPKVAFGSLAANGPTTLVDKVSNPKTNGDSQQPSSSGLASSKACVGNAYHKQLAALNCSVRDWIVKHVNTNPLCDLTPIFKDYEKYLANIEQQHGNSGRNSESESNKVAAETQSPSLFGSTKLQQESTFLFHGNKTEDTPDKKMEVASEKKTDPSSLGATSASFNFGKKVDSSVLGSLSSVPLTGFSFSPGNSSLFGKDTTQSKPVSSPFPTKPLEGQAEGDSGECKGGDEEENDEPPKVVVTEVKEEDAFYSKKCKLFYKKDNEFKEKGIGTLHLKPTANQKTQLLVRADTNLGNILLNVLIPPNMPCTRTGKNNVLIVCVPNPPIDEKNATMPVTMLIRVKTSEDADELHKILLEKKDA
- protocol_notes: co-IP of GFP-tagged KPNB1 truncations, western blot
Where no end group is shown, it is not given here.
value_type: binding result

Some solved entries appear below for comparison.
Q. # binding result lookup, item GFP-KPNB1 H1-8 (receptor, also called GFP-KPNB1 H1-8^WT; not shown: GFP/EGFP tag (pEGFP-C1, Clontech)) GGGSGGGSGGGSMELITILEKTVSPDRLELEAAQKFLERAAVENLPTFLVELSRVLANPGNSQVARVAAGLQIKNSLTSKDPDIKAQYQQRWLAIDANARREVKNYVLQTLGTETYRPSSASQCVAGIACAEIPVNQWPELIPQLVANVTNPNSTEHMKESTLEAIGYICQDIDPEQLQDKSNEILTAIIQGMRKEEPSNNVKLAATNALLNSLEFTKANFDKESERHFIMQVVCEATQCPDTRVRVAALQNLVKIMSLYYQYMETYMGPALFAITIEAMKSDIDEVALQGIEFWSNVCDEEMDLAIEASEAAEQGRPPEHTSKFYAKGALQYLVPILTQTLTKQDENDDDDDWNPCKAAGVCLMLLATCCED
A. binds

Q. # binding result lookup, item GFP-KPNB1 H1-7 (receptor, not shown: GFP/EGFP tag (pEGFP-C1, Clontech)) GGGSGGGSGGGSMELITILEKTVSPDRLELEAAQKFLERAAVENLPTFLVELSRVLANPGNSQVARVAAGLQIKNSLTSKDPDIKAQYQQRWLAIDANARREVKNYVLQTLGTETYRPSSASQCVAGIACAEIPVNQWPELIPQLVANVTNPNSTEHMKESTLEAIGYICQDIDPEQLQDKSNEILTAIIQGMRKEEPSNNVKLAATNALLNSLEFTKANFDKESERHFIMQVVCEATQCPDTRVRVAALQNLVKIMSLYYQYMETYMGPALFAITIEAMKSDIDEVALQGIEFWSNVCDEEMDLAIEASEAAEQGRPP
A. no binding

Q. # binding result lookup, item GFP-KPNB1 H1-4 (receptor, not shown: GFP/EGFP tag (pEGFP-C1, Clontech)) GGGSGGGSGGGSMELITILEKTVSPDRLELEAAQKFLERAAVENLPTFLVELSRVLANPGNSQVARVAAGLQIKNSLTSKDPDIKAQYQQRWLAIDANARREVKNYVLQTLGTETYRPSSASQCVAGIACAEIPVNQWPELIPQLVANVTNPNSTEHMKESTLEAIGYICQDIDPEQLQ
A. no binding

Q. # binding result lookup, item GFP-KPNB1 H1-6 (receptor, not shown: GFP/EGFP tag (pEGFP-C1, Clontech)) GGGSGGGSGGGSMELITILEKTVSPDRLELEAAQKFLERAAVENLPTFLVELSRVLANPGNSQVARVAAGLQIKNSLTSKDPDIKAQYQQRWLAIDANARREVKNYVLQTLGTETYRPSSASQCVAGIACAEIPVNQWPELIPQLVANVTNPNSTEHMKESTLEAIGYICQDIDPEQLQDKSNEILTAIIQGMRKEEPSNNVKLAATNALLNSLEFTKANFDKESERHFIMQVVCEATQCPDTRVRVAALQNLVKIMSLYY
A. no binding

Q. # binding result lookup, item GFP-KPNB1 H1-5 (receptor, not shown: GFP/EGFP tag (pEGFP-C1, Clontech)) GGGSGGGSGGGSMELITILEKTVSPDRLELEAAQKFLERAAVENLPTFLVELSRVLANPGNSQVARVAAGLQIKNSLTSKDPDIKAQYQQRWLAIDANARREVKNYVLQTLGTETYRPSSASQCVAGIACAEIPVNQWPELIPQLVANVTNPNSTEHMKESTLEAIGYICQDIDPEQLQDKSNEILTAIIQGMRKEEPSNNVKLAATNALLNSLEFTKANF
A. no binding

Now for the binder whose binding result we want.
Q. # binding result lookup, item {GFP}-GGGSGGGSGGGSMELITILEKTVSPDRLELEAAQKFLERAAVEN (receptor, also: GFP tag fused N-terminally, not in chain, (GGGS)3 linker in chain, not shown: GFP/EGFP tag (pEGFP-C1, Clontech)) [GFP-KPNB1 H1]
A. no binding
